Recorded values, source paper PMC7218127.

Tested on: HCT-116 human colorectal cancer cell line
Assay: SRB cytotoxicity assay
Settings: read-out: Cytotoxicity IC50, HCT-116; SRB method, 72 h (Table 5); NA = no activity
Measurement Kind: pIC50
Give bare numbers, as −log10 of the molar value.

Compound	pIC50
COc1cc(-c2ccccn2)nc([C@H]2NC(=O)c3ccccc3N2)c1SC	4.83
COc1cccc2c1C(=O)c1c(O)c3c(c(O)c1C2=O)C[C@@](O)(C(=O)CO)C[C@@H]3O[C@H]1C[C@H](N)[C@H](O)[C@H](C)O1 [Adriamycin, reference compound]	6.68

Below: the item to evaluate.
Prompt line: Which value of pIC50 has been reported for COc1cc(-c2ccccn2)nc(/C=N/O)c1[S+](C)[O-] (racemic) [(±)-3, pyrisulfoxin A] in the records?
Response line: 6.14
